- Tested on: Yap1 mRNA
- method_notes: Dose-dependent inhibition of human Yap1 in A-431 cells (Example 7, 10,000 cells per well, RTS36584)
- Assay type: cell-based
- settings: Table 61, 62.5 nM, free uptake, A-431 cells 10,000 cells per well, 48 hours
Strand notation (5' to 3'): a small letter for the sugar, then the base; units joined by * are phosphorothioate-linked, units joined directly phosphodiester-linked; [ ] holds rarer units or linkages, { } end groups; capitals alone tell only the bases. k = constrained ethyl (cEt); [5mC] = 5-methylcytosine; d = 2'-deoxy (DNA)

| substance | Yap1 mRNA, % UTC |
| --- | --- |
| 958484 (kG*k[5mC]*kA*dG*d[5mC]*dA*dA*dT*dG*dG*dA*d[5mC]*dA*kA*kG*kG; antisense) [compound 958484] | 38 % UTC |
| 958529 (k[5mC]*kA*kA*dG*dT*d[5mC]*dT*dT*dG*dT*dA*dA*dG*kT*kA*kA; antisense) [compound 958529] | 64 % UTC |
| 958599 (kT*kT*k[5mC]*dA*dA*dG*dA*dA*dT*dA*d[5mC]*d[5mC]*d[5mC]*kA*kG*kT; antisense) [compound 958599] | 74 % UTC |
| 958534 (kT*kT*k[5mC]*dA*dG*d[5mC]*dA*dT*dA*dG*dA*dA*dG*kT*kA*kG; antisense) [compound 958534] | 48 % UTC |
| 958729 (kG*kT*k[5mC]*dA*dG*dT*dT*dA*dT*d[5mC]*d[5mC]*dT*dA*kT*k[5mC]*kT; antisense) [compound 958729] | 44 % UTC |
| 958644 (kA*kT*kG*dA*dT*d[5mC]*dA*dA*dA*d[5mC]*d[5mC]*dT*dT*kT*kT*k[5mC]; antisense) [compound 958644] | 85 % UTC |

Reference for the values: patent US11214803B2
